# TARGET DESC: human ERK2 (Homo sapiens)
# Construct: recombinantly expressed as GST-tagged full-length protein purified from E. coli; GST
# Sequence (P28482 whole entry): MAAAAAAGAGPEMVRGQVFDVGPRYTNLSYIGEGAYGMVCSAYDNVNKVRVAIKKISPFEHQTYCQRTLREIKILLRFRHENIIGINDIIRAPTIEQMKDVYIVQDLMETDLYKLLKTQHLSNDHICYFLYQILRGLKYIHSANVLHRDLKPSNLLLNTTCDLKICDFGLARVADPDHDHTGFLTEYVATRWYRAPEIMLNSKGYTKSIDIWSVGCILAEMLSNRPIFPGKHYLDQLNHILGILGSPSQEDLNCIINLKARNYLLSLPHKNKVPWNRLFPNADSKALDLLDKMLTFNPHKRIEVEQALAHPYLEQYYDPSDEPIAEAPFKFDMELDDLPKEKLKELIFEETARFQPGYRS
# ASSAY INFO: LanthaScreen TR-FRET ERK2 enzymatic assay
# CONDITION CONTEXT: 5 μM ATP, one hour reaction; read-out: ERK2 Biochemical Activity (IC50 of ERK2 inhibition)
VALUE KIND: IC50

COMPOUND: Cn1nccc1Nc1nccc(-c2cc3c(s2)C(C)(C)N(Cc2cccc(C(F)(F)F)n2)C3=O)n1 [Example 3]
IC50: ≤ 10 nM

COMPOUND: Cn1nccc1Nc1nccc(-c2cc3c(s2)C(C)(C)N(CC(=O)N[C@H](CO)c2cccc(Cl)c2)C3=O)n1 [Example 14]
IC50: ≤ 10 nM

COMPOUND: CC(c1ccnc(C(F)(F)F)n1)N1C(=O)c2cc(-c3ccnc(Nc4ccnn4C)n3)sc2C1(C)C (stereo not shown) [Example 13]
IC50: 10 to 100 nM

Read the next record carefully.
Input: Look up IC50: Cn1nccc1Nc1nccc(-c2cc3c(s2)C(C)(C)N(Cc2ccnc(C(F)(F)F)n2)C3=O)n1 [Example 6]
Output: ≤ 10 nM
